Biological target: human bradykinin B2 receptor (hB2R) (Homo sapiens, UniProt P30411)
Sequence (P30411 1-391): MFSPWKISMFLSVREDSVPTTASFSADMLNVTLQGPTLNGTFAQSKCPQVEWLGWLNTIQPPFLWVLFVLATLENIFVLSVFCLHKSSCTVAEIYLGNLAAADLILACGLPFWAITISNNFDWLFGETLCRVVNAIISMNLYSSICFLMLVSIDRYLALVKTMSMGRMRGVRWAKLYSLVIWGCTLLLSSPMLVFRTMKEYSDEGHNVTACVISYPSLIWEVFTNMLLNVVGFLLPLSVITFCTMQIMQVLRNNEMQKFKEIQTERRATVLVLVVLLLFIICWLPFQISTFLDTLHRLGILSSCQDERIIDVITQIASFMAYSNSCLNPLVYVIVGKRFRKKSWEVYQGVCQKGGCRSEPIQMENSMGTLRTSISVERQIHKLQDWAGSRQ
Assay: human bradykinin B2 receptor calcium mobilization (hB2R-CaM) assay
Settings: antagonism of bradykinin (EC80) induced calcium mobilization, B2 Bradykinin Receptor Stable Cell Line HTS041C, 25 min pre-incubation; read-out: IC50-value towards human bradykinin B2 receptor (hB2R)
pIC50: −log10 of the molar value.
measured_endpoint: pIC50

Here's what some known entries look like.
* Cc1cc(-n2cc(F)cn2)c2cccc(OCc3c(Cl)cc(F)cc3[C@H](C)N3CCN(C)[C@H](C)C3=O)c2n1 | ≥ 8.00
* CCN1C(=O)C(C)N([C@@H](C)c2cc(F)cc(Cl)c2COc2cccc3c(-c4ncnn4C)cc(C)nc23)C1=O (single isomer, unassigned) [compound 53] | ≥ 8.00
* Cc1cc(-n2cc(F)cn2)c2cccc(OCc3c(Cl)cc(F)cc3[C@H](C)N3CCC(C)(C)C3=O)c2n1 | 7.00 to 7.96
* Cc1cc(-n2cc(F)cn2)c2cccc(OCc3c(Cl)cc(F)cc3[C@H](C)N3C(=O)N(C4CC4)C(=O)C3C)c2n1 (single isomer, unassigned) [compound 30] | ≥ 8.00
* Cc1cc(-c2ncnn2C)c2cccc(OCc3c(Cl)cc(F)cc3[C@H](C)N3CC[C@@H](O)C3=O)c2n1 | 7.00 to 7.96

Fill in pIC50 for each of the 2 compounds listed.
1. Cc1cc(-n2cc(F)cn2)c2cccc(OCc3c(Cl)cc(F)cc3[C@H](C)N3CCCCC3=O)c2n1
2. Cc1cc(-n2cc(F)cn2)c2cccc(OCc3c(Cl)cc(F)cc3[C@H](C)N3C(=O)[C@H](C)NC(=O)[C@@H]3C)c2n1

a:
["7.00 to 7.96", "7.00 to 7.96"]

====

Molecular target: human bradykinin B2 receptor (hB2R) (Homo sapiens)
Sequence (P30411 1-391): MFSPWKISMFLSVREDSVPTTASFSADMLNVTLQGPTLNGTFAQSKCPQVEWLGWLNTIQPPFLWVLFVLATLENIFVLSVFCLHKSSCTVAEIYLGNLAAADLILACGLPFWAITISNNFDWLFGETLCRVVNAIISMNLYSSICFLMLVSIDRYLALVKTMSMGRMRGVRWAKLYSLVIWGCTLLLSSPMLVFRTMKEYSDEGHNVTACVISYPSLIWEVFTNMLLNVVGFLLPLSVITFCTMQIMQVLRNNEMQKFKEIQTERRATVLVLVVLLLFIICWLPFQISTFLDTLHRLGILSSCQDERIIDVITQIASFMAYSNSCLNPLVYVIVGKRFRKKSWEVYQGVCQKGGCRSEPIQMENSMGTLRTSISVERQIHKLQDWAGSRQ
Experiment: human bradykinin B2 receptor calcium mobilization (hB2R-CaM) assay
Conditions: antagonism of bradykinin (EC80) induced calcium mobilization, B2 Bradykinin Receptor Stable Cell Line HTS041C, 25 min pre-incubation; read-out: IC50-value towards human bradykinin B2 receptor (hB2R)
pIC50: −log10 of the molar value.
measured_endpoint: pIC50

Here's what some known entries look like.
• CCN1C(=O)C(C)N([C@@H](C)c2cc(F)cc(Cl)c2COc2cccc3c(-c4ncnn4C)cc(C)nc23)C1=O (single isomer, unassigned) [compound 54] = 7.00 to 7.96
• Cc1cc(-n2cc(F)cn2)c2cccc(OCc3c(Cl)cc(F)cc3[C@H](C)N3CCN(C)C(=O)C3=O)c2n1 = ≥ 8.00
• Cc1cc(-c2ncnn2C)c2cccc(OCc3c(Cl)cc(F)cc3[C@H](C)N3CC[C@H](N)C3=O)c2n1 = 7.00 to 7.96
• Cc1cc(-c2ncnn2C)c2cccc(OCc3c(Cl)cc(F)cc3[C@H](C)N3C(=O)[C@@H](C)NC(=O)[C@H]3C)c2n1 = 7.00 to 7.96
• Cc1cc(-n2cc(F)cn2)c2cccc(OCc3c(Cl)cc(F)cc3[C@H](C)N3CCCC3=O)c2n1 = 7.00 to 7.96

Fill in pIC50 for each of the 3 compounds listed.
1. Cc1cc(-c2ncnn2C)c2cccc(OCc3c(Cl)cc(F)cc3[C@H](C)N3C[C@@H](O)CCC3=O)c2n1
2. Cc1cc(-n2cc(F)cn2)c2cccc(OCc3c(Cl)cc(F)cc3[C@H](C)N3CCOC(C)C3=O)c2n1 (single isomer, unassigned)
3. Cc1cc(-c2ncnn2C)c2cccc(OCc3c(Cl)cc(F)cc3[C@H](C)N3C(=O)N(C4CC4)C(=O)C3C)c2n1 (single isomer, unassigned) [compound 56]

a:
1: 7.00 to 7.96; 2: 7.00 to 7.96; 3: 7.00 to 7.96
